Target: T1, Claudin 18.2 (CLDN18.2), expressed on CHOS-CLDN 18.2 / HEK293-CLDN 18.2 / HCC827-CLDN 18.2 cells (human, UniProt P56856-2 1-261)
T1 construct: whole, on cells; The species is not repeated for the CHOS-CLDN 18.2 cells; also called claudin-18A2
Test: FACS, CHOS-CLDN18.2 cells, 0.313 µg/ml
assay metric: FACS reading
Answer field: number only, no words.

For this binder ( QP14631461 (antibody, human IgG1, kappa, V domains shown, also called QP14611463) VH: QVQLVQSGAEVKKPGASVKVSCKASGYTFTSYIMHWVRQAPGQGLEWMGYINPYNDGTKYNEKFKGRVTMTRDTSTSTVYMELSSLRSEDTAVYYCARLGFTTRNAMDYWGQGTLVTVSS VL: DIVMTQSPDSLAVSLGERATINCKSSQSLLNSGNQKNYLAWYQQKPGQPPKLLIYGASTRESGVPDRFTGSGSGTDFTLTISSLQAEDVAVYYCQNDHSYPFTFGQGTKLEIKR ), measured FACS reading is 144000
